target: SpNanC (Streptococcus pneumoniae); assay: biochemical; settings: read-out: Percentage inhibition, SpNanC
Label fulfilled when inhibition at 1000 µM >= 50%; otherwise not fulfilled.

Problem: Answer whether inhibition at 1000 µM of `[N-]=[N+]=N[C@@H]1[C@@H](O)[C@H](F)[C@](F)(C(=O)O)O[C@H]1[C@H](O)[C@H](O)CO` is greater than or equal to 50%.
Result: not fulfilled

Problem: Check the entry `CC(=O)N[C@@H]1[C@@H](O)[C@H](F)[C@](F)(C(=O)O)O[C@H]1[C@H](O)[C@H](O)CN=[N+]=[N-]` : does inhibition at 1000 µM equal or exceed 50%?
Result: fulfilled

Problem: Check the entry `CC(=O)N[C@@H]1[C@@H](O)[C@@H](F)[C@](F)(C(=O)O)O[C@H]1[C@H](O)[C@H](O)CN=[N+]=[N-]` : does inhibition at 1000 µM equal or exceed 50%?
Result: fulfilled

Problem: Is it the case that `O=C(CO)N[C@@H]1[C@@H](O)[C@H](F)[C@](F)(C(=O)O)O[C@H]1[C@H](O)[C@H](O)CO` has inhibition at 1000 µM reaching or exceeding 50%?
Result: not fulfilled

Problem: Assess whether reported inhibition at 1000 µM for `CC(=O)N[C@@H]1[C@@H](O)[C@H](F)[C@](F)(C(=O)O)O[C@H]1[C@H](O)[C@H](O)CO` sits at 50% or higher.
Result: not fulfilled

Problem: # bool: inhibition at 1000 µM of `CC(=O)N[C@@H]1[C@@H](O)[C@@H](F)[C@](F)(C(=O)O)O[C@H]1[C@H](O)[C@H](O)CO` >= 50%
Result: fulfilled

====

Task for the reader: assign each of the following compounds its reported inhibition at 100 µM.
biological target: UniProt Q54727; experiment: biochemical; conditions: read-out: Percentage inhibition, SpNanB
Sequence (Q54727 30-697): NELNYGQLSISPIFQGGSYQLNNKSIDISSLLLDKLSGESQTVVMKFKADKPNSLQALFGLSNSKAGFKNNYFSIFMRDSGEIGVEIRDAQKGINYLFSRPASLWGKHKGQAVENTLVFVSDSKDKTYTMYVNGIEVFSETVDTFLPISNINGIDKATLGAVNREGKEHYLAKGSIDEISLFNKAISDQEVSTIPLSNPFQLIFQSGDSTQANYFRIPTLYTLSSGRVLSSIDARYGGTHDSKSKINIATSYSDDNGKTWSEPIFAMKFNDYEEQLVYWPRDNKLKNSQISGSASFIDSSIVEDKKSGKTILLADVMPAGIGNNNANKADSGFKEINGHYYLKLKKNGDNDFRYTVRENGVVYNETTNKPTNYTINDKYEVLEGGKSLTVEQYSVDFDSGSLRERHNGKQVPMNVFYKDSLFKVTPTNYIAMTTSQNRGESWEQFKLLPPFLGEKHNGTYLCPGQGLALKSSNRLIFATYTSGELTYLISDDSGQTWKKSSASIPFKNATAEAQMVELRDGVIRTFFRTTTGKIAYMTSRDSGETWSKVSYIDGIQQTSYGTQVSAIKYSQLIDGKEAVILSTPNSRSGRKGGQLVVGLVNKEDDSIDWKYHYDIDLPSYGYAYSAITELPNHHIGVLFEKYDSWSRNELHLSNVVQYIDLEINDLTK

Problem: Give a short answer stating reported inhibition at 100 µM for `O=C(CO)N[C@@H]1[C@@H](O)[C@H](F)[C@](F)(C(=O)O)O[C@H]1[C@H](O)[C@H](O)CO` .
Result: 25.3%

Problem: Provide only the value of recorded inhibition at 100 µM for `CC(=O)N[C@@H]1[C@@H](O)[C@@H](F)[C@](F)(C(=O)O)O[C@H]1[C@H](O)[C@H](O)CO`
Result: 12%

Problem: Check the records and state inhibition at 100 µM for `[N-]=[N+]=N[C@@H]1[C@@H](O)[C@H](F)[C@](F)(C(=O)O)O[C@H]1[C@H](O)[C@H](O)CO`
Result: 35.1%

Problem: Quickly give me recorded inhibition at 100 µM for `CC(=O)N[C@@H]1[C@@H](O)[C@H](F)[C@](F)(C(=O)O)O[C@H]1[C@H](O)[C@H](O)CN=[N+]=[N-]`
Result: 26.8%

Problem: Please give measured inhibition at 100 µM of the following entry: `CC(=O)N[C@@H]1[C@@H](O)[C@@H](F)[C@](F)(C(=O)O)O[C@H]1[C@H](O)[C@H](O)CN=[N+]=[N-]`
Result: 16.7%

Problem: Look up and state reported inhibition at 100 µM for `CC(=O)N[C@@H]1[C@@H](O)[C@H](F)[C@](F)(C(=O)O)O[C@H]1[C@H](O)[C@H](O)CO`
Result: 11.8%
